Each recorded value in this set is attributed to paper PMC9306349.

- assay-remarks: Stability of THR-184 in human plasma with and without ACE inhibitor
- Format: in vitro ADME
- setup-conditions: compound administered with an ACE inhibitor, read-out: serum half-life
Bridge positions count the residues as written; N and C are the ends. Peptide text beside a SMILES is read from it.
metric-name: half-life (h)
Answers are plain numbers, in h.

What measured half-life goes with CC(C)C[C@@H]1NC(=O)[C@H](C(C)C)NC(=O)[C@H](CO)NC(=O)[C@H](CO)NC(=O)[C@H](CO)NC(=O)[C@H](CC(N)=O)NC(=O)[C@H](CC(=O)O)NC(=O)[C@H](Cc2ccc(O)cc2)NC(=O)[C@H](Cc2ccc(O)cc2)NC(=O)[C@@H](N)CSSC[C@@H](C(=O)N[C@@H](CCCCN)C(=O)N[C@@H](CCCNC(=N)N)C(=O)N[C@@H](Cc2ccc(O)cc2)C(=O)N[C@@H](CCCNC(=N)N)C(=O)N[C@@H](CO)C(=O)O)NC1=O [THR-184] (H-CYYDNSSSVLCKRYRS-OH; disulfide 1-11) ?
1
